- MEASUREMENT_NOTES: AUC (0 to infinity) in healthy human at 1500 mg, po administered as single dose measured after 72 hrs by HPLC method
- CONDITION_PARAMETERS: plasma
QUANTITY: AUC(0-inf)

Incoming: Let me know recorded AUC(0-inf) for C[C@@H]([C@H](N)C(=O)N[C@H](C(=O)O)[C@H]1O[C@@H](n2ccc(=O)[nH]c2=O)[C@H](O)[C@@H]1O)[C@H](O)c1ccc(O)cn1 [NIKKOMYCIN] , thanks.
Outgoing: 30600 ng·h/mL

---

- MEASUREMENT_NOTES: AUC (0 to t) in healthy human at 500 mg, po administered as single dose measured after 72 hrs by HPLC method
- CONDITION_PARAMETERS: plasma
QUANTITY: AUC(0-t) at 72 h

Incoming: Let me know recorded AUC(0-t) at 72 h for `C[C@@H]([C@H](N)C(=O)N[C@H](C(=O)O)[C@H]1O[C@@H](n2ccc(=O)[nH]c2=O)[C@H](O)[C@@H]1O)[C@H](O)c1ccc(O)cn1` , thanks.
Outgoing: 24300 ng·h/mL

The reported numbers originate from ChEMBL document CHEMBL1649469.
